# assayedSystem: p38α (Homo sapiens, UniProt Q16539)
# Construct: p38 MAP Kinases are recombinant human full-length proteins with an amino-terminal GST fusion; GST (N)
# Sequence (Q16539 whole entry, the tested form may be a part): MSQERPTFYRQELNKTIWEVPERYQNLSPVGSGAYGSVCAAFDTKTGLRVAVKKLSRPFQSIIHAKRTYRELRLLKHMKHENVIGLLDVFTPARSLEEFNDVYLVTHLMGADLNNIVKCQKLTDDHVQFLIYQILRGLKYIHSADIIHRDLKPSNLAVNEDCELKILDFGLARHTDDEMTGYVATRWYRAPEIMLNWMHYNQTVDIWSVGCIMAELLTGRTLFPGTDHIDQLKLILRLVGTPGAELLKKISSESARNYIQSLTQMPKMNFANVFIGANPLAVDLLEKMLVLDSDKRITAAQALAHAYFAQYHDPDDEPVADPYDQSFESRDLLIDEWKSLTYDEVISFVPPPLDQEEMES
# testProtocol: p38 MAP Kinase assay: inhibition of ATF2 phosphorylation, ELISA
# experimentalSetup: ATF2 phosphorylation; read-out: [ENZ] P38 ALPHA, IC50, ELISA
# Source text: Compounds of the invention are screened for the ability to inhibit ATF2 phosphorylation by p38 MAP Kinase in vitro. […]
pIC50: −log10 of the molar value.
Entries annotated with measured pIC50

These recorded examples may help you get a feel for the data.
The measured pIC50 associated with O=C(Nc1ccc(OCCN2CCOCC2)c2ccccc12)c1cc(F)cc(N2CCc3ccccc3C2)c1 reads < 5.00

The measured pIC50 associated with O=C(Nc1ccc(OCCN2CCOCC2)c2ccccc12)c1cccc(C(=O)c2ccccc2)c1 reads < 5.00

The measured pIC50 associated with O=C(Nc1ccc(OCCN2CCOCC2)c2ccccc12)c1cccc(-c2ccccc2C(F)(F)F)c1 reads < 5.00

New cases:
The measured pIC50 associated with CCC1CCC(Oc2cc(F)cc(C(=O)Nc3ccc(OCc4ccncc4)c4ccccc34)c2)CC1 (stereo not drawn) reads < 5.00

The measured pIC50 associated with Cc1ccc(-c2cccc(C(=O)Nc3ccc(OCCN4CCOCC4)c4ccccc34)c2)c(C)c1 reads < 5.00

The measured pIC50 associated with COc1cccc(-c2cccc(C(=O)Nc3ccc(OCCN4CCOCC4)c4ccccc34)c2)c1OC reads < 5.00

The measured pIC50 associated with O=C(Nc1ccc(OCCN2CCOCC2)c2ccccc12)c1cc(N2CCOCC2)ccc1Cl reads < 5.00
